assay: in vitro; settings: human, Papp, Mono, apical to basolateral, 30 min, 37°C, day 6; mean ± SEM, four biological replicates
REPORTED PROPERTY: Papp A→B (×10⁻⁶ cm/s)
Answer in ×10⁻⁶ cm/s, number only, no unit symbol.

Given `Cc1ncc2n1-c1ccc(Cl)cc1C(c1ccccc1F)=NC2` , state its recorded Papp A→B.
25.3

====

assay: in vitro; conditions: human, Papp, Triple, apical to basolateral, 30 min, 37°C, day 6; mean ± SEM, four biological replicates
REPORTED PROPERTY: Papp A→B (×10⁻⁶ cm/s)
Answer in ×10⁻⁶ cm/s, number only, no unit symbol.

# STRUCTURE STRING, READOUT UNITS, Papp A→B
records = [
    ("NCC1(CC(=O)O)CCCCC1", "×10⁻⁶ cm/s", 8.78),
]

Attention now turns to another entry.
Given `Cc1ncc2n1-c1ccc(Cl)cc1C(c1ccccc1F)=NC2` , state its recorded Papp A→B.
19.1

Just for reference, paper PMC11524583 is where these values come from.
